- measured.on: T1, internally quenched fluorogenic peptide (FRET substrate), Ac-DED(EDANS)EEαAbuψ[COO]ASK(DABCYL)-NH2
- T1 chain: DEDEEXASK
Listing: Km of selected proteins

| protein | Km |
| --- | --- |
| A156T mutant HCV NS3 serine protease domain, Con1 strain (protein) APITAYSQQTRGLLGCIITSLTGRDRNQVEGEVQVVSTATQSFLATCVNGVCWTVYHGAGSKTLAGPKGPITQMYTNVDQDLVGWQAPPGARSLTPCTCGSSDLYLVTRHADVIPVRRRGDSRGSLLSPRPVSYLKGSSGGPLLCPSGHAVGIFRTAVCTRGVAKAVDFVPVESMETTMRSHHHHHH | 1.3 µM |
| A156V mutant HCV NS3 serine protease domain, Con1 strain (protein) APITAYSQQTRGLLGCIITSLTGRDRNQVEGEVQVVSTATQSFLATCVNGVCWTVYHGAGSKTLAGPKGPITQMYTNVDQDLVGWQAPPGARSLTPCTCGSSDLYLVTRHADVIPVRRRGDSRGSLLSPRPVSYLKGSSGGPLLCPSGHAVGIFRVAVCTRGVAKAVDFVPVESMETTMRSHHHHHH | 2.6 µM |

Now look at this one.
What Km value was documented for this protein, wild type HCV NS3 serine protease domain, genotype 1b (Con1), residues Ala1-Ser181 with a C-terminal hexa-histidine tag (protein) APITAYSQQTRGLLGCIITSLTGRDRNQVEGEVQVVSTATQSFLATCVNGVCWTVYHGAGSKTLAGPKGPITQMYTNVDQDLVGWQAPPGARSLTPCTCGSSDLYLVTRHADVIPVRRRGDSRGSLLSPRPVSYLKGSSGGPLLCPSGHAVGIFRAAVCTRGVAKAVDFVPVESMETTMRSHHHHHH ? 1.1 µM

Ref: patent US20110086006
